The measured values listed here are drawn from patent US20250250357A1.

- ASSAY_SYSTEM: T1, human MSLN-R3-his protein (human, UniProt Q13421 487-598)
- T1 construct: Region 3 of human mesothelin, made in HEK293E cells, His-tagged; also called human MSLN-R3 protein; hMSLN-R3-his; not shown: His tag
- T1 sequence (Q13421 495-606): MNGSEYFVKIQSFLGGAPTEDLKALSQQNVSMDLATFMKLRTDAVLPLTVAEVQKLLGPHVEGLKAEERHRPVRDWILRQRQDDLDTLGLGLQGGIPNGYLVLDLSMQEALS
- ASSAY_COMMENT: ELISA on coated MSLN-R3; antibody 100 nM
For each entry below, report its OD450 value.
The response must be a number in OD450 with no trailing unit.

Documented OD450 of S009-F8-19.21 (antibody, human IgG1, kappa, V domains shown) VH: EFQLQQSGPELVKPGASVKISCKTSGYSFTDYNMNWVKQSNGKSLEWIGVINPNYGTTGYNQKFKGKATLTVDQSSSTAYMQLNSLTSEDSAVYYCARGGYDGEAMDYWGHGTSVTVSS VL: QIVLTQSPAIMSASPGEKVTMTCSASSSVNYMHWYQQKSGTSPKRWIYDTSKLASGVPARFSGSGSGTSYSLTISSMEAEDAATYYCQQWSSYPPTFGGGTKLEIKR : 0.09

OD450 measured on S009-F8-18.9 (antibody, human IgG1, kappa, V domains shown) VH: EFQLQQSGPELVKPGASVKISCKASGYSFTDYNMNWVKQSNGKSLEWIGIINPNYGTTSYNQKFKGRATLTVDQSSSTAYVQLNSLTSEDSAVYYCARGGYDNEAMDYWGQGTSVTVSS VL: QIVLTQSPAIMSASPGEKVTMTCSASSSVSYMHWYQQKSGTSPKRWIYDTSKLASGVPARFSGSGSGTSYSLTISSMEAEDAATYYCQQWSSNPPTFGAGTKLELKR = 0.1
